System: 786-0 renal
Experiment: NCI tumour cell line growth inhibition, 48 h
Quick list: TGI per entry.
Your answer should be a plain number; it is taken to be in µM.

Example entries begin here.
[in] Recorded TGI for CC(=O)O[C@H]1C(=O)[C@@]2(C)[C@H]([C@H](OC(=O)c3ccccc3)[C@]3(O)C[C@H](OC(=O)[C@H](OC(=O)OCCC(O)CO)[C@@H](NC(=O)c4ccccc4)c4ccccc4)C(C)=C1C3(C)C)[C@]1(OC(C)=O)CO[C@@H]1C[C@@H]2O (some centres undefined) with 786-0 renal, please?
[out] 33

[in] State its TGI on 786-0 renal: C[C@@H]1CN(C(=O)c2ccc(NC(=O)c3cc(O[C@H](C)c4c(Cl)ccc(F)c4Cl)c(N)nn3)cc2)C[C@H](C)N1
[out] 15.7

[in] Form: Entry = COc1cc(C2=NN(C)C(c3ccc([N+](=O)[O-])o3)C2)cc(OC)c1OC (centres undefined) | System = 786-0 renal | TGI = ____
[out] 42.7

[in] Fill in the recorded TGI for this compound, with 786-0 renal as test system: Cc1cc(N2CCCCC2)nc(N(CCCNc2ccnc3cc(Cl)ccc23)Cc2ccco2)n1
[out] 3.27

Others:
[in] For 786-0 renal, provide TGI of C=C1C(=O)O[C@@H]2[C@H]1C[C@@H](O)[C@H](C)[C@@](O)(C(=O)/C=C/C)[C@H]2OC(=O)C(C)CC (some centres undefined) please.
[out] 6.91

[in] # query: TGI | item C=C1C(=O)O[C@@H]2C[C@@]3(C)CCC[C@H](C)C3=C[C@H]12 | system: 786-0 renal
[out] 12.7

[in] Lab request: please report TGI under test system 786-0 renal for CCOC(=O)/C(=C\c1ccc(O)c(OC)c1)C(=O)c1ccccc1
[out] 37.6

[in] Checklist item: TGI tested on 786-0 renal, entry COc1cc(C2c3cc4c(cc3OC(NC3CCCCC3)C2C)OCO4)cc(OC)c1OC (centres undefined) , value?
[out] 20.1

====

Test system: A549 NSCLC
Assay: NCI tumour cell line growth inhibition, 48 h; in the data active = GI50 below about 0.43 µM; inactive = the rest
# valid calls are active, inactive; nothing else

Use the examples below as a reference point.
[in] # lookup: test call for CC[C@H](C)[C@H]1NC(=O)[C@@H](N[C@](C)(O)[C@@H](N)CC(C)C)[C@@H](C)OC(=O)[C@H](Cc2ccc(OC)cc2)N(C)C(=O)[C@@H]2CCCN2C(=O)[C@H](CC(C)C)NC(=O)[C@@H](C)C(=O)[C@H](C(C)C)OC(=O)C[C@@H]1O
[out] active

[in] Hello, I am checking results. What call was entered for N#C/C(=C\c1ccc(-c2ccc(Cl)cc2)o1)C(=O)Nc1ncc(Cc2ccc(Cl)cc2)s1 ?
[out] inactive

[in] Identify the outcome logged in this assay for the molecule shown: Cn1cc(-c2nc(-c3c[nH]c4ncccc34)cs2)c2cc(F)ccc21
[out] inactive

[in] Recorded test outcome, item O=c1c2cccc(Cl)c2sc2c(NCCCNCCO)nc3ccccc3c12
[out] inactive

[in] Check the results log: what was the call for Cc1cc2c(cc1Cl)SC1=CC(=O)N(c3ccccc3)C1=NS2(=O)=O ?
[out] inactive

[in] Which outcome did this test record for the molecule O=[N+]([O-])c1ccc(Br)c([N+](=O)[O-])c1 ?
[out] inactive

[in] For CN(C)c1ccc(N2Cc3ccccc3OC3=C2C(=O)c2c(O)ccc(O)c2C3=O)cn1 , which call appears in the assay record?
[out] inactive

[in] Field: outcome | Entry: COc1cc2nc(-c3cnc(N(C)C)nc3)nc(NC3CCN(Cc4ccccc4)CC3)c2cc1OC
[out] active

Please look at the following molecule next.
[in] So what was the verdict on C[n+]1c(/C=C\c2ccc(Cl)cc2)ccc2ccccc21 in this test?
[out] inactive

====

Tested on: UACC-257 melanoma
Test: NCI tumour cell line growth inhibition, 48 h; in the data active = GI50 below about 0.43 µM; inactive = the rest
Allowed answers: 1 for active, -1 for inactive

Look over these answered cases.
[in] What classification did COc1cc(NS(C)(=O)=O)ccc1Nc1c2ccc(Cl)cc2nc2c(OC)cccc12 end up with in this test?
[out] -1

[in] Which outcome was entered for the compound CC(=O)[CH-]C(=O)c1ccccc1.CC(=O)[CH-]C(=O)c1ccccc1.CC[O-].CC[O-].[Zr+4] in this test?
[out] -1

[in] Test call for this compound, please: COc1cc2nc(-c3cnc(N(C)C)nc3)nc(NC3CCN(Cc4ccccc4)CC3)c2cc1OC
[out] -1

[in] Hi, sorry to bother you, what did the test record for CC1=C(C(=O)Nc2ccc(F)c(Cl)c2)C(c2ccccc2Cl)NC(=S)N1 (stereo unspecified) ?
[out] -1

[in] So what was the verdict on O=C(Nc1ccccc1O)c1cccc(NC2=C(Cl)C(=O)N(Cc3ccccc3)C2=O)c1 in this test?
[out] -1

[in] Status in this test for COc1cc(-c2nc(Nc3nc4ccccc4[nH]3)nc(N)c2C#N)cc(OC)c1OC ?
[out] -1

[in] Call for entry C1=Cc2ccccc2Nc2ccccc21 :
[out] -1

[in] Each compound tested received a call. Report the one for CC(C)(C)NC(C1=CC(C)(C)c2ccccc2C1=O)c1ccccc1 (stereo unspecified) .
[out] -1

[in] # fetch the recorded call for Cn1cc(-c2nc(-c3c[nH]c4ncccc34)cs2)c2cc(F)ccc21 here
[out] -1

[in] How was COc1cc2nc3sc(C(=O)Nc4ccc(C(=O)OC(C)C)cc4)c(C(=O)Nc4ccc(Cl)cc4C)n3c(=O)c2cc1OC classified in this test?
[out] -1

Next:
[in] What classification did CCOc1c(Br)cc(C2C(C(=O)OC)=CN(C)C=C2C(=O)OC)cc1OC end up with in this test?
[out] -1

[in] Any idea what this test logged for CC(C)=CCC[C@H](C)[C@@H]1CC[C@]2(C)C3CC[C@]4(OC4(C)C)C(CCCO)[C@]3(C)CC[C@@]12C (stereo partly specified) ?
[out] -1

[in] Name the outcome recorded for CC[C@@H](C(=O)[C@@H](C)[C@@H](O)[C@H](C)[C@@H]1O[C@@H]([C@@H](CC)C(=O)O)CC[C@@H]1C)C1O[C@]2(C=CC(=O)[C@]3(CC[C@@](C)([C@H]4CC[C@](O)(CC)[C@H](C)O4)O3)O2)[C@H](C)C[C@@H]1C (stereo partly specified) in the assay.
[out] 1

[in] Please state the recorded outcome for this compound: C[C@@H]1CN(C(=O)c2ccc(NC(=O)c3cc(O[C@H](C)c4c(Cl)ccc(F)c4Cl)c(N)nn3)cc2)C[C@H](C)N1
[out] -1

[in] Could you check what this test reported for CC[C@H](C)[C@H]1NC(=O)[C@@H](N[C@](C)(O)[C@@H](N)CC(C)C)[C@@H](C)OC(=O)[C@H](Cc2ccc(OC)cc2)N(C)C(=O)[C@@H]2CCCN2C(=O)[C@H](CC(C)C)NC(=O)[C@@H](C)C(=O)[C@H](C(C)C)OC(=O)C[C@@H]1O ?
[out] 1

[in] What did this assay record as the result for CCC[CH2][Sn]1([CH2]CCC)[O]C(=O)c2cc(I)cc(I)c2[O]1 ?
[out] -1

====

System: HOP-92 NSCLC
Assay: NCI tumour cell line growth inhibition, 48 h
Each item that follows carries a reported GI50.

[in] Which GI50 is listed for N#C/C(=C\c1ccc(-c2ccc(Cl)cc2)o1)C(=O)Nc1ncc(Cc2ccc(Cl)cc2)s1 ?
[out] 1.97 µM

[in] Name the recorded GI50 for COc1ccccc1OCC(=O)Nc1sc2c(c1C(N)=O)CCC2 .
[out] > 100 µM

Turning to the following molecule.
[in] Any idea what its GI50 is? The molecule is CC(=O)N1N=C2/C(=C/c3ccccc3)CC(C)CC2C1c1ccccc1 (stereo not drawn)
[out] 13.9 µM

====

Tested on: OVCAR-8 ovarian
Assay: NCI tumour cell line growth inhibition, 48 h
List of TGI values.

[in] Form entry - test system: OVCAR-8 ovarian; read-out: TGI; molecule: COC(=O)CCC(=O)CC(=O)C1=NS(=O)(=O)c2nc(S(N)(=O)=O)c(Cl)cc2N1
[out] > 100 µM

[in] # query: TGI | item COc1ccc(-c2[nH]c3ccccc3c2C=C(C#N)C#N)cc1 | system: OVCAR-8 ovarian
[out] > 100 µM

[in] Request body: readout TGI, system OVCAR-8 ovarian, query Cc1cc(N2CCCCC2)nc(N(CCCNc2ccnc3cc(Cl)ccc23)Cc2ccco2)n1 . Return the value.
[out] 5.18 µM

[in] Hi! What's the reported TGI for C=C(C)C1CC=C(C)[C@](O)(C2(O)C[C@H](C(=C)C)CC=C2C)C1 (stereo not given in full) on OVCAR-8 ovarian?
[out] > 100 µM

[in] Give the reported TGI for CCOC(=O)c1ccc(Nc2nc3cc(C(F)(F)F)ccc3nc2-c2ccccc2)cc1 (system: OVCAR-8 ovarian).
[out] > 100 µM

---
[in] Quick check: TGI on OVCAR-8 ovarian, item C=C1C(=O)O[C@H]2[C@H]1CC/C(COC(=O)CCCCC(=O)OC/C1=C/CC[C@@]3(C)O[C@H]3[C@H]3OC(=O)C(=C)[C@@H]3CC1)=C\CC[C@@]1(C)O[C@@H]21 ?
[out] 11 µM

[in] What value of TGI on OVCAR-8 ovarian does Nc1nc(N)c(N=O)c(Nc2ccc(O)cc2)n1 have?
[out] > 100 µM

[in] Request: TGI, test system OVCAR-8 ovarian, entry CC1=C[C@H]2c3c(c(O)c(O)c4oc5c(C)cccc5c(=O)c34)[C@H](c3cc(O)c(O)c4oc5c(C)cccc5c(=O)c34)[C@H]2C(C)(C)C1
[out] 17.4 µM

[in] What reported TGI corresponds to COC(=O)C1=C2CCC(=O)[C@@]2(C)C(OC(C)=O)C=CC1 (stereo not given in full) on OVCAR-8 ovarian?
[out] > 100 µM
